Each recorded value in this set is attributed to patent US20130053541A1.

# target: T1, Annexin A5 (Homo sapiens (Human), UniProt P08758 2-320, directly labeled with a fluorescent tag (Cy 5 per paragraph 324; Cy3 per paragraph 57))
# T1 construct: also called ANXA5; ANX-A5
# T1 sequence: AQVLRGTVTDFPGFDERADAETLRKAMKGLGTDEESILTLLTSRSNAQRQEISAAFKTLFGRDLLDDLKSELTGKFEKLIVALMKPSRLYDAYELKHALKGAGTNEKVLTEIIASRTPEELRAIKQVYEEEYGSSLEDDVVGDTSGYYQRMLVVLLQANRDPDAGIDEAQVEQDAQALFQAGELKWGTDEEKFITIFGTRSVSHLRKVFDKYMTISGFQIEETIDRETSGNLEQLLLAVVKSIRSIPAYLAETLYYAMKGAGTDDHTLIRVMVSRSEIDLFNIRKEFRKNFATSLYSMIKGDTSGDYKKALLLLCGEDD
# test.protocol: peptide density-array chip
Items are presented alongside their recorded log10 Kd.
Kindly note that the scale is log10 and the underlying Kd is in nM.

I'd like to know its log10 Kd. The binder in question is AYLGYAAG (Array-synthesised 8-mer)
1.39

Can you check SERFFARY (Array-synthesised 8-mer) next?
2.72
